Target: mushroom tyrosinase (Agaricus bisporus, UniProt C7FF04)
Sequence (C7FF04 1-392): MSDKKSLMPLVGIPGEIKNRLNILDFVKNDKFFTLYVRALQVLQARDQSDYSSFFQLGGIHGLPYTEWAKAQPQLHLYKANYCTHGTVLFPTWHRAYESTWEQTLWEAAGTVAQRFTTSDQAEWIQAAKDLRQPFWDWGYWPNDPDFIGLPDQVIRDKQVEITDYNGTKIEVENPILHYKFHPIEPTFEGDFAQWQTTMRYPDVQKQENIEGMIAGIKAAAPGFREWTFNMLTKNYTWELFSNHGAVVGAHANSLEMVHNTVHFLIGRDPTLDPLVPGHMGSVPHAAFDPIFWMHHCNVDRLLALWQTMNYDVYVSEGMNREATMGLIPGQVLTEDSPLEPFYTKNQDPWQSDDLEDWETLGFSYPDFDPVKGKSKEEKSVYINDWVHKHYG
Assay: Mushroom tyrosinase inhibition assay
Type: biochemical
quantityName: IC50 (µM)
The answer is to be given in µM; state only the numeric part.

Query: Entry CC(=O)Nc1ccc(N=Nc2c(N)nc(N)nc2Cl)cc1 needs its IC50 filled in; supply it.
Response: 24.5
